system: HeLa; experiment: Selectivity ratio of CC50 for BRCA1-proficient human HeLa to CC50 for BRCA1-deficient human HeLa cells; format: functional
Readout Name: Selectivity ratio

| Smiles | Result |
| --- | --- |
| O=C(c1ccccn1)N1CCN(C(=O)c2cc(Cc3c[nH]c(=O)c4cc(Cl)c(Cl)n34)ccc2F)CC1 | 30 |
| N#Cc1cccnc1N1CCN(C(=O)c2cc(Cc3c[nH]c(=O)c4cc(Cl)c(Cl)n34)ccc2F)CC1 | 25 |
| O=C(c1cc(Cc2c[nH]c(=O)c3cc(Cl)c(Cl)n23)ccc1F)N1CCC2(CCCN2)CC1 | 50 |
| CC(C)C(=O)N1CCN(C(=O)c2cc(Cc3c[nH]c(=O)c4cc(Cl)c(Cl)n34)ccc2F)CC1 | 30 |
| O=C(c1cc(Cc2c[nH]c(=O)c3cc(Cl)c(Cl)n23)ccc1F)N1CCN(c2cccnc2)CC1 | 20 |

---

assay: Clearance in rat; assay type: ADME, organism-based; conditions: in vivo

| Smiles | Comparison Symbol | clearance (mL/min/kg) |
| --- | --- | --- |
| CNC(C)(C)C(=O)N1CCN(C(=O)c2cc(Cc3c[nH]c(=O)c4cc(Cl)c(Cl)n34)ccc2F)CC1 | > | 200 |
| O=C(c1cc(Cc2c[nH]c(=O)c3cc(Cl)c(Cl)n23)ccc1F)N1CCC(N2CCCC2)CC1 | = | 94 |

---

molecular target: Poly [ADP-ribose] polymerase 1 (Homo sapiens, UniProt P09874); assay: Inhibition of PARP1 by topcount microplate scintillation counter
Sequence (P09874 whole entry): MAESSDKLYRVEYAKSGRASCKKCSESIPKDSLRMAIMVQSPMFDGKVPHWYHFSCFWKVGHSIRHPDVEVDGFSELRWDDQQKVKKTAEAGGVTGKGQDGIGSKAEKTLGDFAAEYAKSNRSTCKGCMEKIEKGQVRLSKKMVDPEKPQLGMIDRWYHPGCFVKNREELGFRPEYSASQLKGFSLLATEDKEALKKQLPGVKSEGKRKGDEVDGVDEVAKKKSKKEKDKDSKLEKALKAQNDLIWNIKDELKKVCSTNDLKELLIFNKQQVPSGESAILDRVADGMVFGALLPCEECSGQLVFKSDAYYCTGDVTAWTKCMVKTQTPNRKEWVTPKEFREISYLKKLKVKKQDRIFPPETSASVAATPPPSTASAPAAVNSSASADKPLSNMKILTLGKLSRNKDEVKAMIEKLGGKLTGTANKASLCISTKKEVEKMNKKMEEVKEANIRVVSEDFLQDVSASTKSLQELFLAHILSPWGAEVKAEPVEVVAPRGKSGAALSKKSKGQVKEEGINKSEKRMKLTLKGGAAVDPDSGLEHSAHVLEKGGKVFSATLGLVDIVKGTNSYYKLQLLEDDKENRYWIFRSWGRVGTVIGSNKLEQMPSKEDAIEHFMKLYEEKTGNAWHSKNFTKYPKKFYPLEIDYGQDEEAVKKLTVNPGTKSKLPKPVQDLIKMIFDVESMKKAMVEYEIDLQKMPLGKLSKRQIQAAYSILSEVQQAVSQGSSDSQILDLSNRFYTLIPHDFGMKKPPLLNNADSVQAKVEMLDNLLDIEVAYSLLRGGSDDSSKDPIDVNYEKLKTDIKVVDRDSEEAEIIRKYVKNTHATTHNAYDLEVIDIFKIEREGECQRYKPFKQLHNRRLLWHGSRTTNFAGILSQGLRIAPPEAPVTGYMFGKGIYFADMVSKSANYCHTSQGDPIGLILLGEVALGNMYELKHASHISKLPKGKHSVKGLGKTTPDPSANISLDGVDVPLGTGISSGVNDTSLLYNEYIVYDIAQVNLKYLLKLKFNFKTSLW
pIC50: −log10 of the molar value.

| Smiles | pIC50 |
| --- | --- |
| N#Cc1cccnc1N1CCN(C(=O)c2cc(Cc3c[nH]c(=O)c4cc(Cl)c(Cl)n34)ccc2F)CC1 | 9.15 |
| O=C(c1cc(Cc2c[nH]c(=O)c3cc(Cl)c(Cl)n23)ccc1F)N1CCN(C2CCCCC2)CC1 | 7.85 |
| O=C(c1cc(Cc2c[nH]c(=O)c3cc(Cl)c(Cl)n23)ccc1F)N1CCC2(CCCCN2)CC1 | 8.21 |
| O=C(c1cc(Cc2c[nH]c(=O)c3cc(Cl)c(Cl)n23)ccc1F)N1CCC2(CCN2)CC1 | 8.09 |
| O=C(c1cc(Cc2c[nH]c(=O)c3cc(Cl)c(Cl)n23)ccc1F)N1CCC2(CC1)NCNC2=O | 8.05 |
| CNC(C)(C)C(=O)N1CCN(C(=O)c2cc(Cc3c[nH]c(=O)c4cc(Cl)c(Cl)n34)ccc2F)CC1 | 8.68 |
| CC(C)(C)C(=O)N1CCN(C(=O)c2cc(Cc3c[nH]c(=O)c4cc(Cl)c(Cl)n34)ccc2F)CC1 | 9.00 |
| CC(=O)N1CCCN(C(=O)c2cc(Cc3c[nH]c(=O)c4cc(Cl)c(Cl)n34)ccc2F)CC1 | 7.72 |

---

target: Poly [ADP-ribose] polymerase 1 (Homo sapiens, UniProt P09874)
pIC50: −log10 of the molar value.
Measured pIC50, listed per entry.

| Smiles | pIC50 |
| --- | --- |
| CN(C)C1CCN(C(=O)c2cc(Cc3c[nH]c(=O)c4cc(Cl)c(Cl)n34)ccc2F)CC1 | 8.59 |
| CC(C)C(=O)N1CCN(C(=O)c2cc(Cc3c[nH]c(=O)c4cc(Cl)c(Cl)n34)ccc2F)CC1 | 8.68 |
| O=C(c1cc(Cc2c[nH]c(=O)c3cc(Cl)c(Cl)n23)ccc1F)N1CCOCC1 | 7.23 |
| O=C(c1cc(Cc2c[nH]c(=O)c3cc(Cl)c(Cl)n23)ccc1F)N1CCN(c2ccccn2)CC1 | 8.55 |
| CC(=O)N1CCN(C(=O)c2cc(Cc3c[nH]c(=O)c4cc(Cl)c(Cl)n34)ccc2F)CC1 | 8.20 |
| O=C(c1cc(Cc2c[nH]c(=O)c3cc(Cl)c(Cl)n23)ccc1F)N1CCN(c2ncccn2)CC1 | 8.51 |
| CCS(=O)(=O)N1CCN(C(=O)c2cc(Cc3c[nH]c(=O)c4cc(Cl)c(Cl)n34)ccc2F)CC1 | 8.05 |
| CCCCN1CCN(C(=O)c2cc(Cc3c[nH]c(=O)c4cc(Cl)c(Cl)n34)ccc2F)CC1 | 7.89 |
| CCN(CC)C1CCN(C(=O)c2cc(Cc3c[nH]c(=O)c4cc(Cl)c(Cl)n34)ccc2F)CC1 | 7.66 |

---

assay: Intrinsic clearance in rat liver microsomes; type: ADME, Microsome
Readout Name: microsomal CLint (µL/min/mg)

| Smiles | Readout Name | Numeric Result |
| --- | --- | --- |
| O=C(c1cc(Cc2c[nH]c(=O)c3cc(Cl)c(Cl)n23)ccc1F)N1CCC(N2CCCC2)CC1 | microsomal CLint | 135 |

---

test system: HeLa; test: Antiproliferative activity against BRCA1-deficient human HeLa cells after 7 days by celltiter-blue assay; type: functional; conditions: 168 h

| Smiles | Comparison Symbol | CC50 [nM] |
| --- | --- | --- |
| O=C(c1cc(Cc2c[nH]c(=O)c3cc(Cl)c(Cl)n23)ccc1F)N1CCC2(CCCCN2)CC1 | = | 220 |
| CC(C)C(=O)N1CCN(C(=O)c2cc(Cc3c[nH]c(=O)c4cc(Cl)c(Cl)n34)ccc2F)CC1 | = | 150 |
| O=C(c1cc(Cc2c[nH]c(=O)c3cc(Cl)c(Cl)n23)ccc1F)N1CCN(c2cccnc2)CC1 | > | 5000 |
| CCS(=O)(=O)N1CCN(C(=O)c2cc(Cc3c[nH]c(=O)c4cc(Cl)c(Cl)n34)ccc2F)CC1 | = | 3000 |
| O=C(c1cc(Cc2c[nH]c(=O)c3cc(Cl)c(Cl)n23)ccc1F)N1CCN(c2ncccn2)CC1 | = | 130 |
| CCC(=O)N1CCN(C(=O)c2cc(Cc3c[nH]c(=O)c4cc(Cl)c(Cl)n34)ccc2F)CC1 | = | 1200 |
| O=C(c1cc(Cc2c[nH]c(=O)c3cc(Cl)c(Cl)n23)ccc1F)N1CCN(CCO)CC1 | > | 5000 |
| CN(C)C(=O)N1CCN(C(=O)c2cc(Cc3c[nH]c(=O)c4cc(Cl)c(Cl)n34)ccc2F)CC1 | = | 670 |

---

tested on: HeLa; experiment: Antiproliferative activity against BRCA1-deficient human HeLa cells after 7 days by celltiter-blue assay; format: functional; settings: 168 h
Measured CC50, listed per entry.

| Smiles | Measurement Target | Comparison Symbol | CC50, nM |
| --- | --- | --- | --- |
| O=C(c1cc(Cc2c[nH]c(=O)c3cc(Cl)c(Cl)n23)ccc1F)N1CCC2(CC1)NCNC2=O | HeLa | > | 2500 |
| O=C(c1cc(Cc2c[nH]c(=O)c3cc(Cl)c(Cl)n23)ccc1F)N1CCN(c2ccccc2F)CC1 | HeLa | > | 10000 |
| Cc1cc2c(=O)[nH]cc(Cc3ccc(F)c(C(=O)N4CCCNCC4)c3)n2c1 | HeLa | = | 3400 |
| O=C(c1cc(Cc2c[nH]c(=O)c3cc(Cl)c(Cl)n23)ccc1F)N1CCN(c2ncc3ccccc3n2)CC1 | HeLa | = | 190 |
| O=C(c1cc(Cc2c[nH]c(=O)c3cc(Cl)c(Cl)n23)ccc1F)N1CCC(N2CCCC2)CC1 | HeLa | = | 120 |
